Assay System: acetylcholine receptor
Experimental Protocol: SPR, AchR immobilised on CM5 chip, peptide at 10 uM
Kindly supply the reported Binding affinity (RU) values for the records listed here.
Numeric answer only, unit RU assumed.

# input Requested field: Binding affinity (RU). Item: RRRFRR [6mer-1-431]
# output 144

# input # query: Binding affinity (RU) of entry RKVLRR [6mer-1-454]
# output 124

# input Bench note: what Binding affinity (RU) did RFPWR [5mer-1164] show?
# output 33

# input Consider the binder RRVFYK [6mer-1-455] and give its measured Binding affinity (RU).
# output 126

# input // returns reported Binding affinity (RU) for input KFTNR [5mer-1150]
# output 12

# input Look at this binder and give its reported Binding affinity (RU). KRLYTR [6mer-1-452]
# output 141

# input Please look up its Binding affinity (RU): RFDNR [5mer-1178]
# output 22

# input # get_value(readout='Binding affinity (RU)', item= RHHWR [5mer-1168] )
# output 31
